The measurements presented in this section are drawn from patent US20210032365A1.

# test.system: T1, human C1s (human, UniProt P09871 16-688)
# T1 construct: also called hC1s; serum-derived human C1s (CompTech)
# T1 sequence: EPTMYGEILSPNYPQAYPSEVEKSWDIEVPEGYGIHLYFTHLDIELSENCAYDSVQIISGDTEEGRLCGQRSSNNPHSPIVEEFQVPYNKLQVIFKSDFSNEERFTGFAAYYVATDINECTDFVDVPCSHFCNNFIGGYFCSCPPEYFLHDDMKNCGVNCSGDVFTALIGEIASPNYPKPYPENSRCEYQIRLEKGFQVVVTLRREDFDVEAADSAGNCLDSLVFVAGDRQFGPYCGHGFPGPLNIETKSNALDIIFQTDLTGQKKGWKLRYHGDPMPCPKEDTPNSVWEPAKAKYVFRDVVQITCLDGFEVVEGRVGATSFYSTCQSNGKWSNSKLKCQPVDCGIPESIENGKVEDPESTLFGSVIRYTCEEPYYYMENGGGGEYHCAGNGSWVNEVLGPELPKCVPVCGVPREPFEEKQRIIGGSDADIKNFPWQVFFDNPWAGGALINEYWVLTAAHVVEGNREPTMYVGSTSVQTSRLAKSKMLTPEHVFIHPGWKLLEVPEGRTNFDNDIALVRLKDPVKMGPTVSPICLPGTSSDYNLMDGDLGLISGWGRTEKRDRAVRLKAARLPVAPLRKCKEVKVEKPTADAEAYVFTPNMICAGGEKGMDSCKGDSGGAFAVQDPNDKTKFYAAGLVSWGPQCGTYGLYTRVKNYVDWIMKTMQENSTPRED
# protocol.text: SPR, Ab captured; pH 5.8, 3 uM Ca

{"binder": "C1_IPN92H0026-SG4GK/IPN93L0029-SK1 (antibody, human IgG4 S228P, kappa, name in Kabat numbering, V domains shown, also called IPN92H0026/IPN93L0029) VH: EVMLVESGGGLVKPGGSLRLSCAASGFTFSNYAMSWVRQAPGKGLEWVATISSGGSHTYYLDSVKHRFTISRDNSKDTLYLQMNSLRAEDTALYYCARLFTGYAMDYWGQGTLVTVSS VL: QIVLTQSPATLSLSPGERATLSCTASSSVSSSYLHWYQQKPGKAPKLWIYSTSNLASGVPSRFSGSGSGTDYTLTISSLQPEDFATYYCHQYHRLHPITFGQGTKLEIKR", "unit": "s⁻¹", "koff": 0.00412}
{"binder": "C1_IPN92H0033-SG4GK/IPN93L0029-SK1 (antibody, human IgG4 S228P, kappa, name in Kabat numbering, V domains shown, also called IPN92H0033/IPN93L0029) VH: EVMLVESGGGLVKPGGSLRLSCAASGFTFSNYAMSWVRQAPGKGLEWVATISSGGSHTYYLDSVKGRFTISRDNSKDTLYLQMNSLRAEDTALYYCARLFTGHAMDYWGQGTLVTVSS VL: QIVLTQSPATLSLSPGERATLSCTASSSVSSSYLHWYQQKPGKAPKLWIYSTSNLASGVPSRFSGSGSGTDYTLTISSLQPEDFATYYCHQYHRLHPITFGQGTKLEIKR", "unit": "s⁻¹", "koff": 0.00376}
{"binder": "C1_IPN92H0033-SG4GK/IPN93L0030-SK1 (antibody, human IgG4 S228P, kappa, name in Kabat numbering, V domains shown, also called IPN92H0033/IPN93L0030) VH: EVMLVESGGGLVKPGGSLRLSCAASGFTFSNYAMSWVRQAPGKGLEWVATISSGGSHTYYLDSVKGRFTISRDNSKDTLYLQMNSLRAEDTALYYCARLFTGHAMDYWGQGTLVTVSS VL: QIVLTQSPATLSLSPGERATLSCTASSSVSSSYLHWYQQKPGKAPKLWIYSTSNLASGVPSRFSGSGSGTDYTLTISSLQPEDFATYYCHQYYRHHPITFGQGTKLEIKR", "unit": "s⁻¹", "koff": 0.0603}
{"binder": "C1_IPN92H0026-SG4GK/IPN93L0028-SK1 (antibody, human IgG4 S228P, kappa, name in Kabat numbering, V domains shown, also called IPN92H0026/IPN93L0028) VH: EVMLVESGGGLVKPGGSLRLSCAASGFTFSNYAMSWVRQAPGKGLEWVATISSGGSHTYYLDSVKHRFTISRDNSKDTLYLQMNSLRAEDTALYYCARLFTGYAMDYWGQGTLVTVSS VL: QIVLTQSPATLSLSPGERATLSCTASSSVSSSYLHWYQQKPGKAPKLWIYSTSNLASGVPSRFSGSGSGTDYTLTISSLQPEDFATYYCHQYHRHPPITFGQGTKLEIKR", "unit": "s⁻¹", "koff": 0.176}
{"binder": "C1_IPN92H0026-SG4GK/IPN93L0024-SK1 (antibody, human IgG4 S228P, kappa, name in Kabat numbering, V domains shown, also called IPN92H0026/IPN93L0024) VH: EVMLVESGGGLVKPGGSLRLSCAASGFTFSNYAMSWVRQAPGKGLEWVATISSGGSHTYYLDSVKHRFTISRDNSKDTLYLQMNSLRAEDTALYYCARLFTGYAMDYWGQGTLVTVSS VL: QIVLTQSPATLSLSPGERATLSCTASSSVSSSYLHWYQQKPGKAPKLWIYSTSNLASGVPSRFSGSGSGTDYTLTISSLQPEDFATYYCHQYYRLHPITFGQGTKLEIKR", "unit": "s⁻¹", "koff": 0.112}
{"binder": "C1_IPN92H0026-SG4GK/IPN93L0030-SK1 (antibody, human IgG4 S228P, kappa, name in Kabat numbering, V domains shown, also called IPN92H0026/IPN93L0030) VH: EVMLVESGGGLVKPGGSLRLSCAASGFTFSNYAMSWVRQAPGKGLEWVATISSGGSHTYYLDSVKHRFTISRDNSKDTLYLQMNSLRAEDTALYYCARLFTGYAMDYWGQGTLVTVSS VL: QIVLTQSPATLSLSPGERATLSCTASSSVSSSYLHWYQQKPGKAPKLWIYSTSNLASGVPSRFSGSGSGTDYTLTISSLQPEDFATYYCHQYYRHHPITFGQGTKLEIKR", "unit": "s⁻¹", "koff": 0.0012}
{"binder": "C1_IPN92H0038-SG4GK/IPN93L0030-SK1 (antibody, human IgG4 S228P, kappa, name in Kabat numbering, V domains shown, also called IPN92H0038/IPN93L0030) VH: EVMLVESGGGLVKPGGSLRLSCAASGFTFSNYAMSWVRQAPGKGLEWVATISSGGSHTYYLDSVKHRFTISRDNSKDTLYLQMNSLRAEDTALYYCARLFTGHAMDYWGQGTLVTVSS VL: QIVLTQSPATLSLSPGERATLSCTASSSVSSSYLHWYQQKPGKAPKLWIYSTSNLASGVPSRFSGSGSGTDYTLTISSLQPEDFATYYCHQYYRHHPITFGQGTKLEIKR", "unit": "s⁻¹", "koff": 0.00538}
